# Experimental system: T1, β-catenin (UniProt P35222 134-665, limits assumed, biotinylated in the SPR and plate assays)
# T1 construct: also called beta catenin; biotinylated β-catenin
# T1 sequence (looked up): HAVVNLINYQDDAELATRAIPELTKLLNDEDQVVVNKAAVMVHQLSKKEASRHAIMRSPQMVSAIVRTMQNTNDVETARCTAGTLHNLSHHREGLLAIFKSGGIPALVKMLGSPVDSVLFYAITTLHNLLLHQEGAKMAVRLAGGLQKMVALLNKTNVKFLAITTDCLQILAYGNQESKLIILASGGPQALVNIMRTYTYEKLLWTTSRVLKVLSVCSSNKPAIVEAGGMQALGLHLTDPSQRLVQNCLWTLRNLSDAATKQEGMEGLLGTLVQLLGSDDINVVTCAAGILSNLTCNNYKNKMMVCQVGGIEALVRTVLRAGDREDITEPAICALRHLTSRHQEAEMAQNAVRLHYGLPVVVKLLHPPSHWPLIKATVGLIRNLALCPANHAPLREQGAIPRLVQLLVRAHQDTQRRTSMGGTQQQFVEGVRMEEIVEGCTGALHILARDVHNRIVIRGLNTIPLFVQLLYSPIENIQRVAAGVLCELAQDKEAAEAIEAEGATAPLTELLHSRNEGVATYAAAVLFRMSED
# Procedure details: competitive FP
# Experimental: Fluorescence polarization (FP) is another method used to analyze protein-ligand interactions. This methodology measures the change in fluorescence light emitted by a labelled compound free vs. conjugated to another compound in solution. Upon binding of the fluorescent molecule to a complex, polarization increases because of limited rotation of the fluorescent tracer. […] Data were analyzed and plotted in Microsoft Excel (Microsoft, Redmond, WA). […]
[ ]: non-standard residue; d: D form. NMeW = CN[C@@H](Cc1c[nH]c2ccccc12)C(=O)O; αMeS = C[C@](N)(CO)C(=O)O
Measured quantity: Kd

Data request: Entry MWGLISFWG (HELM PEPTIDE1{[ac].M.W.[O=C([C@@H](N[*:1])C1CCCCC1)[*:2]].L.I.S.F.W.G}$$$$V2.0; SMILES CC[C@H](C)[C@H](NC(=O)[C@H](CC(C)C)NC(=O)[C@@H](NC(=O)[C@H](Cc1c[nH]c2ccccc12)NC(=O)[C@H](CCSC)NC(C)=O)C1CCCCC1)C(=O)N[C@@H](CO)C(=O)N[C@@H](Cc1ccccc1)C(=O)N[C@@H](Cc1c[nH]c2ccccc12)C(=O)NCC(=O)O, also called Hit 1) [SEQ ID NO: 217] : reported Kd = ?
Data returned: ≤ 400 nM

Data request: Entry Ac-WILISFWG-OH [SEQ ID NO: 195] : reported Kd = ?
Data returned: ≤ 400 nM

Data request: Entry H-W[NMeW]E[αMeS]ILDEHVQRVWG-NH2 [SEQ ID NO: 40] : reported Kd = ?
Data returned: ≤ 400 nM
